test: M. tuberculosis growth inhibition, HTS (AID 1259417);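 also: bacteria grown with compound for 5 days at 37 °C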; settings: M. tuberculosis growth inhibition; stronger effect = higher value; concentration not given here
Out of some 1,100 compounds screened, about 760 (69%) were called active. The set was probably picked from earlier hits. The list shows a part of the results.
MEASURED ENDPOINT: inhibition

- Cc1ccc(-c2nnc(SCC(=O)Nc3cc(C)on3)o2)cc1: 50.5%
- CCn1nnc(NC(=O)c2sc3ccccc3c2Cl)n1: 47.8%
- Cc1ccc2sc(NNC(=O)c3cc4ccccc4oc3=O)nc2c1C: 33.4%
- Cc1ccc(C(=O)Nc2nc(-c3ccccc3)c(-c3ccccc3)o2)cc1: 65.6%
- Cc1ccc(Cc2ccc(C(=O)Nc3ccc(C)c(C)c3)o2)cc1: 99.7%
- CCCCC(=O)Nc1nnc(-c2ccc3c(c2)CCCC3)o1: 57.9%
- Cc1c(Cl)cccc1NC(=O)c1ccc(OC(C)C(=O)OC2CCCCC2)cc1 (stereo unspecified): 74.3%
- CCOC(=O)COc1ccc(S(=O)(=O)Nc2c(C)cccc2CC)cc1: 92.2%
- CCC(C)Oc1ccc(C(=O)NC(=S)Nc2ccc3c(c2)COC3=O)cc1 (stereo unspecified): 25.2%
- O=c1cnnc(NN=Cc2cc(Br)ccc2O)[nH]1: 98.8%
- Cc1ccc2sc(NNC(=O)C3COc4ccccc4O3)nc2c1C (stereo unspecified): -8.62%

====

assay: M. tuberculosis growth inhibition, HTS (AID 1259417);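 also: bacteria grown with compound for 5 days at 37 °C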; details: M. tuberculosis growth inhibition; stronger effect = higher value; concentration not given here
The whole screen tested about 1,100 compounds, of which about 760 (69%) were called active. So high a share suggests a set chosen from earlier hits. Some of the results follow.
MEASURED ENDPOINT: inhibition (%)

- CCCCc1ccc(NC(=O)c2cc3cc(Br)cc(OC)c3oc2=O)cc1: 82.8
- COc1ccc(OC)c(NC(=O)c2cc3cc(Cl)ccc3oc2=O)c1: 21.1
- O=C1CC(c2ccc(Cl)cc2)CC2=C1C(c1ccc(C(F)(F)F)cc1)Nc1ccccc1N2 (centres undefined): -10.1
- CCOC(=O)CNC(=O)CSc1nc(-c2ccccc2)ns1: 65.5
- CNC(=O)c1c(NC(=O)c2cccc(C)c2)sc2c1CCC2: -24.5
- CSc1nsc(SCC(=O)Nc2ccc(OC(C)=O)cc2)n1: 24.6
- CCOC(=O)c1c(NC(=O)c2c(F)c(F)c(F)c(F)c2F)sc2c1CCCCC2: 96.2
- O=C(CSc1ccc(Cl)cc1)Nc1ccc(Cl)c(C(F)(F)F)c1: -15.8
- CCOC(=O)C1=C(C)N(c2ccc(Br)cc2)C(=O)C1: 8.65
- CCC(C(=O)Nc1ccc(CC(=O)OC)cc1)c1ccccc1 (centres undefined): 93.3
- CC(=O)Oc1cc2c(cc1Cl)C1(CC(c3ccccc3Cl)O2)CC(C)(C)NC(=S)N1 (centres undefined): -4.82
- CSCCC(NC(=O)c1cc([N+](=O)[O-])cc([N+](=O)[O-])c1)c1nc2ccccc2[nH]1 (centres undefined): 71.3
- CCC(C)(C)c1ccc(OCCCn2ccnc2)cc1: 99.6
- O=C(CSc1nnc(-c2cccs2)o1)OC1CCCCC1: 52.1
- O=C1C(Cl)=C(Nc2ccccc2O)C(=O)N1c1ccc(Cl)c(Cl)c1: 94.6
- CCOC(=O)C1CCCN(c2ccc([N+](=O)[O-])c3nonc23)C1 (centres undefined): 67.6
- CCC(C)c1ccc(OCCCCn2ccnc2)cc1 (centres undefined): 100
- CCc1ccc(Oc2coc3cc(OC(C)C(=O)OC)ccc3c2=O)cc1 (centres undefined): 92.2
- Cc1ccc(C(C)C)c(OCCCCn2ccnc2)c1: 100

====

assay: M. tuberculosis growth inhibition, HTS (AID 1259417);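 also: bacteria grown with compound for 5 days at 37 °C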; settings: M. tuberculosis DsRed fluorescence growth inhibition; stronger effect = higher value; concentration not given here
Hit rate of the full screen: of about 1,100 compounds, about 760 (69%) were called active. The set was probably picked from earlier hits. Some of the results follow.
This section presents compounds with their documented inhibition values.
MEASURED ENDPOINT: inhibition (%)

* S=C(NCc1ccc(Cl)cc1)N1CCN(CC=Cc2ccccc2)CC1 | 5.55
* O=C(C[n+]1cc(-c2ccc(Cl)cc2)n2c1CCC2)N1c2ccccc2Sc2ccccc21 | 10.7
* O=C(c1ccco1)N(CCCn1ccnc1)c1nc2c(F)cc(F)cc2s1 | 97.5
* COC(=O)CSc1nc2c(c(-c3ccco3)c1C#N)CCCC2 | 2.74
* COC(=O)CSc1nc(-c2ccccc2)c2c(c1C#N)CCCC2 | -3.83
* O=C(CSc1nc2cc(Cl)ccc2o1)NCCc1ccccc1 | 85.8
* Cc1ccn2c(-c3csc(Nc4ccccn4)n3)c(C)nc2c1 | 98.9
* O=S1(=O)C=C(Sc2nnc(-c3ccncc3)o2)c2ccccc21 | 100
* O=C(Nc1nnc(-c2ccc3c(c2)CCCC3)o1)c1ccccc1Br | 2.76
* Cc1cccnc1Nc1nc(-c2ccccn2)cs1 | 100
